- Study Target: EGFR (Homo sapiens, UniProt P00533)
- Construct: host or cells: A431
- Sequence (P00533 25-1210): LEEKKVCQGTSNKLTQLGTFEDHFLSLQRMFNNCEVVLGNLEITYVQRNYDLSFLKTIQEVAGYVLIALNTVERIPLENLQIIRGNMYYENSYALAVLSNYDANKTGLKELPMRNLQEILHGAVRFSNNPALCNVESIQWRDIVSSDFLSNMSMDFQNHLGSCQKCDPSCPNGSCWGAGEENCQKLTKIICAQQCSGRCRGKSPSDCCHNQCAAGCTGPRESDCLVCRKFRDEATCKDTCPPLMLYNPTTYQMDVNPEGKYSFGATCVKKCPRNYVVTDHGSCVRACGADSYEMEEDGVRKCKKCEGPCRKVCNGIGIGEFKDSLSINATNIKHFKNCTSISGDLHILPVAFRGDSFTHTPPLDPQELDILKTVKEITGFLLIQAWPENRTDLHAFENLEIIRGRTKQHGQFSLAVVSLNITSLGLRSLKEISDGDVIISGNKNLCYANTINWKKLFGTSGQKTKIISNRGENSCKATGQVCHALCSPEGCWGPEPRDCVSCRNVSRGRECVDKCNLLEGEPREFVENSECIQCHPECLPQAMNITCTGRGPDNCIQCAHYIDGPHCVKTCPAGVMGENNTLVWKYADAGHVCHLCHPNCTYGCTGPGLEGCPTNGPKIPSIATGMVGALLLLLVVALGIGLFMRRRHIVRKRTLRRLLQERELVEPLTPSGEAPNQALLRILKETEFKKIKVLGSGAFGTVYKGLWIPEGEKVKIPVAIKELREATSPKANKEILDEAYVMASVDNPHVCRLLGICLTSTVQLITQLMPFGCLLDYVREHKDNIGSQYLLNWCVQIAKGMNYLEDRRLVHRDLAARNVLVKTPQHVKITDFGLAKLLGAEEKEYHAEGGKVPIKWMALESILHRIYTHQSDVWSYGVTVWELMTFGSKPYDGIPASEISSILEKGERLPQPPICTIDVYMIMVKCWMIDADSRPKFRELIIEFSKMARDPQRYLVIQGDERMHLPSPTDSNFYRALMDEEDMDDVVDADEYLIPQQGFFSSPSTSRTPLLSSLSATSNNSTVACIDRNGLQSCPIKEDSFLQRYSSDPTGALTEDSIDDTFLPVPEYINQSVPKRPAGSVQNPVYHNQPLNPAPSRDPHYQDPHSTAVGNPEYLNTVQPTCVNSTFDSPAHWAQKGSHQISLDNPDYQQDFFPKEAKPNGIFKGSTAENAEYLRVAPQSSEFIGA
- Assay Summary: EGFR in-cell Western (ICW) screening protocol (EGFR inhibition assay)
- Type: cell-based
- Design: unit not given here
- Measurement Context: ICW assay, run 1
Counter-ions that a name gives are not always drawn.
Binary call on ICW 1: YES from 50 upward, NO beneath that.

{"Compound": "Cc1ccc2c(C)nc(Nc3nc4c(c(-c5ccccc5)n3)CCCC4)nc2c1", "Label": "NO"}
{"Compound": "CCOC(=O)c1c(N)nc(Nc2nc(C)c3cc(OC)ccc3n2)nc1-c1ccccc1", "Label": "YES"}
{"Compound": "Cc1nc(Nc2nc(=O)cc(CSc3ccc(Cl)cc3)[nH]2)nc2ccccc12 [11445 + TFA]", "Label": "YES"}
{"Compound": "Cc1ccc2nc(Nc3nc(C)c(CCC(C)C)c(=O)[nH]3)nc(C)c2c1 [12666 + TFA]", "Label": "NO"}
{"Compound": "Cc1cc(C)c2nc(Nc3nc(CSc4nnc(C)s4)cc(=O)[nH]3)nc(C)c2c1", "Label": "NO"}

----------
- Study Target: EGFR (Homo sapiens, UniProt P00533)
- Construct: host or cells: A431
- Assay Summary: EGFR in-cell Western (ICW) screening protocol (EGFR inhibition assay);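 on ICW Screen (ICW Inhibition): compound at 125 µM in assay in A431 cells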
- Type: cell-based

{"Molecule": "Cc1cc(NS(=O)(=O)c2ccc(NC(=S)NC(=O)/C=C/c3ccccc3)cc2)no1 [AD4-12173]", "ICW Screen (ICW Inhibition)": 35.393}
{"Molecule": "CC(C)(C)C(=O)NC(=S)Nc1ccc(S(=O)(=O)NCCc2ccccc2)cc1 [AD4-10613]", "ICW Screen (ICW Inhibition)": 35.514}
{"Molecule": "CN1CCN(S(=O)(=O)c2ccc(NC(=S)NC(=O)C3CCCC3)cc2)CC1", "ICW Screen (ICW Inhibition)": 27.176}
{"Molecule": "CN1CCN(S(=O)(=O)c2ccc(NC(=S)NC(=O)c3ccccc3)cc2)CC1", "ICW Screen (ICW Inhibition)": 30.052}
{"Molecule": "O=C(Cc1ccccc1)NC(=S)Nc1ccc(S(=O)(=O)Nc2ccccc2)cc1 [AD4-12074]", "ICW Screen (ICW Inhibition)": 29.545}
{"Molecule": "O=C(NC(=S)Nc1ccc(S(=O)(=O)N2CCc3ccccc32)cc1)C1CCCC1", "ICW Screen (ICW Inhibition)": 25.191}
{"Molecule": "COC(=O)CCC(=O)NC(=S)Nc1ccc(S(=O)(=O)Nc2cc(C)cc(C)c2)cc1", "ICW Screen (ICW Inhibition)": 29.436}
{"Molecule": "COc1cc(NS(=O)(=O)c2ccc(NC(=S)NC(=O)/C=C/c3ccccc3)cc2)nc(OC)n1 [AD4-12122]", "ICW Screen (ICW Inhibition)": 35.068}
{"Molecule": "CC(C)C(=O)NC(=S)Nc1ccc(S(=O)(=O)NC2CCCCC2)cc1", "ICW Screen (ICW Inhibition)": 40.346}
{"Molecule": "CN(c1ccccc1)S(=O)(=O)c1ccc(NC(=S)NC(=O)/C=C/c2cccs2)cc1", "ICW Screen (ICW Inhibition)": 35.584}
{"Molecule": "COc1ccc(NS(=O)(=O)c2ccc(NC(=S)NC(=O)C(C)(C)C)cc2)cc1", "ICW Screen (ICW Inhibition)": 27.18}
{"Molecule": "Cc1cc(C)nc(NS(=O)(=O)c2ccc(NC(=S)NC(=O)/C=C/c3ccc(Cl)cc3)cc2)n1", "ICW Screen (ICW Inhibition)": 38.362}

From: patent US20140179681A1
